# test_details: Cmax in human at 40 mg, po
# Type: ADME
# experimental_conditions: in vivo
assay_endpoint: Cmax (ng/mL)
Expressed in ng/mL, but write only the number.

Item under review: CCC(=O)NS(=O)(=O)c1ccc(NC(=O)Cc2ccc(Br)c(Oc3cc(Cl)cc(C#N)c3)c2F)c(Cl)c1 [ELSULFAVIRINE] . Reported Cmax?
10.8

* * *

# test_details: Cmax in human at 20 mg, po
# Format: ADME
# experimental_conditions: in vivo
assay_endpoint: Cmax (ng/mL)
Expressed in ng/mL, but write only the number.

Item under review: CCC(=O)NS(=O)(=O)c1ccc(NC(=O)Cc2ccc(Br)c(Oc3cc(Cl)cc(C#N)c3)c2F)c(Cl)c1 . Reported Cmax?
7.5

* * *

# test_details: Tmax in human at 40 mg, po
# Assay type: ADME
# experimental_conditions: in vivo
assay_endpoint: Tmax

Item under review: CCC(=O)NS(=O)(=O)c1ccc(NC(=O)Cc2ccc(Br)c(Oc3cc(Cl)cc(C#N)c3)c2F)c(Cl)c1 . Reported Tmax?
1.9 h

* * *

# system_name: Human immunodeficiency virus type 1 reverse transcriptase (Human immunodeficiency virus 1, UniProt Q72547)
# test_details: Inhibition of wild type HIV-1 reverse transcriptase
assay_endpoint: pIC50
As a rule, pIC50 stands for the negative log10 of the concentration, concentration in M.

Item under review: Cc1cc(/C=C/C#N)cc(C)c1Nc1ccnc(Nc2ccc(C#N)cc2)n1 . Reported pIC50?
9.62

* * *

# test_details: Half life in human at 40 mg by LC-MS/MS analysis
# Format: ADME
# experimental_conditions: in vivo
assay_endpoint: half-life (min)
Expressed in min, but write only the number.

Item under review: CCC(=O)NS(=O)(=O)c1ccc(NC(=O)Cc2ccc(Br)c(Oc3cc(Cl)cc(C#N)c3)c2F)c(Cl)c1 . Reported half-life?
156

* * *

# system_name: Human immunodeficiency virus type 1 reverse transcriptase (Human immunodeficiency virus 1)
# test_details: Inhibition of HIV-1 NL4-3 reverse transcriptase
assay_endpoint: IC50

Look up IC50 with Human immunodeficiency virus type 1 reverse transcriptase (Human immunodeficiency virus 1) for this molecule: Cc1cc(/C=C/C#N)cc(C)c1Nc1ccnc(Nc2ccc(C#N)cc2)n1
< 2 nM

* * *

# system_name: Human immunodeficiency virus type 1 integrase (Human immunodeficiency virus 1)
# test_details: Inhibition of HIV-1 NL4-3 integrase
assay_endpoint: pIC50
As a rule, pIC50 stands for the negative log10 of the concentration, concentration in M.

Item under review: C[C@H]1CO[C@@H]2Cn3cc(C(=O)NCc4ccc(F)cc4F)c(=O)c(O)c3C(=O)N12 . Reported pIC50?
9.47

* * *

# system_name: Human immunodeficiency virus type 1 integrase (Human immunodeficiency virus 1, UniProt Q7ZJM1)
# Sequence (Q7ZJM1 whole entry): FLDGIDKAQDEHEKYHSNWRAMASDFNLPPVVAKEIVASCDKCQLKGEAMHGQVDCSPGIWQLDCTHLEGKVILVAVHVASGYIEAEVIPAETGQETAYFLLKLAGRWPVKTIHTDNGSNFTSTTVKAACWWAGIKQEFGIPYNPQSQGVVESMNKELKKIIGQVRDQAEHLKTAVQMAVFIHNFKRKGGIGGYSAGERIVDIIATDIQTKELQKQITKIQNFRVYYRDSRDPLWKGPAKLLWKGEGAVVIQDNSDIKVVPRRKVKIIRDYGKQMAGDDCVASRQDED
# test_details: Inhibition of HIV-1 BAL integrase strand transfer activity
assay_endpoint: IC50

Item under review: C[C@H]1CO[C@@H]2Cn3cc(C(=O)NCc4ccc(F)cc4F)c(=O)c(O)c3C(=O)N12 . Reported IC50?
0.22 nM
